The origin of these recorded values is the supplement of paper PMC10567573.

Here, each record is paired with measured protein stability index data.
B1: TCEB3B (parent)
chain: STTALGDKQRKANESKGTRESWDS

# Variants of: B1
# MEASUREMENT_PROTOCOL: protein stability index of a GFP-peptide fusion (GPS, HEK-293T) (PSI 1-6); higher = more stable;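 further: lentivirally expressed fusions sorted by FACS into six bins by GFP to DsRed ratio, PSI derived from sequencing read proportions per bin multiplied by bin number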
# MEASUREMENT_CONDITIONS: c terminus: a fixed tail appended
ASSAY_ENDPOINT: protein stability index

>>> recorded_value("STTALGDKQRKDNESKGTRESWDS [A12D]")
4.36
>>> recorded_value("CTTALGDKQRKANESKGTRESWDS [S1C]")
3.47
>>> recorded_value("STTALGDKQRKANYSKGTRESWDS [E14Y]")
2.95
>>> recorded_value("STTALGDKQRKANESKGTRESHDS [W22H]")
5.45
>>> recorded_value("STTALGDKQRKANESLGTRESWDS [K16L]")
4.3
>>> recorded_value("STTALGDKQRKANESKGTRESIDS [W22I]")
5.53
>>> recorded_value("STTALGDKARKANESKGTRESWDS [Q9A]")
3.38
>>> recorded_value("STTAIGDKQRKANESKGTRESWDS [L5I]")
3.17
>>> recorded_value("STTALCDKQRKANESKGTRESWDS [G6C]")
3.74
>>> recorded_value("STTALGDKQRKANESKGTAESWDS [R19A]")
4.95
>>> recorded_value("STTALGDKQRKANESKGPRESWDS [T18P]")
3.22
>>> recorded_value("STTALGDKQRKANESKGTRESWGS [D23G]")
2.83
>>> recorded_value("STTALTDKQRKANESKGTRESWDS [G6T]")
3.81
